Tested on: MYCN-2 cells
assayText: In vitro cytotoxicity, SRB assay, MYCN-2 cells
Type: cell-based
assaySetup: Homo sapiens, read-out: IC50, cytotoxicity (MYCN)
Structures can show the parent of a compound that is named as a salt.
endpoint: IC50

For CN(C)C(=N)N=C(N)N [metformin hydrochloride, Metformin hydrochloride] the compound record lists IC50 as > 100 mM
